PROPERTY_LABEL: melting point

Input CCOC(=O)c1c(C)nn(C)c1S(=O)(=O)NC(=S)Nc1nc(C)cc(OC)n1 . Output melting point: 157 to 158 °C

Looking up CC1(C)Oc2ccc(S(=O)(=O)c3ccc(C#N)cc3)cc2C(O)C1Br (stereo not drawn) , I found its melting point recorded as 157 to 158 °C

Record O=C(O)c1nc(NCC(c2ccccc2)c2ccccc2)c2nc[nH]c2n1 , field melting point: 241 to 249 °C

For reference, reported melting point for O=c1ccoc2cc(OCCCCCl)ccc12 stands at 75 to 78 °C

For reference, reported melting point for O=c1[nH]c(C=Cc2ccc([N+](=O)[O-])o2)nc2ccccc12 stands at 327 °C

// field: melting point; key: CCNC(=O)c1ccc(Cc2ccccc2)cn1 ; value = 77 to 78 °C

# melting point (compound: Cc1ccc2c(Cl)cc(C(=O)NCCCc3ccccc3)c(O)c2n1 ) is 109 to 111 °C

Lab book: melting point of c1ccc(N2c3ccccc3CC2C2=NCCN2)cc1 (stereo not drawn) noted as 141 to 144 °C

Noted for CCOc1ccc(-c2nc(CCC(O)c3ccccc3OC)cs2)cc1OCC (stereo not drawn) : its melting point reads 78.2 to 79 °C

Lab note: COC(=O)c1c(N)ccc([N+](=O)[O-])c1C gave melting point of 92 to 94 °C

Recorded melting point (compound O=C1c2cccc3cc(OS(=O)(=O)C(F)(F)F)cc(c23)C(=O)N1O ): 167 to 169 °C

For record COc1ccc(-c2nc(COc3cccc(N)c3)c(C)o2)cc1 the listed melting point is 132 to 134 °C

melting point reported for this compound Cc1nc(Cn2nnnc2-c2cccc(Cl)c2Cl)cs1 : 156 to 158 °C

The measured melting point associated with CCOC(=O)C=C(C)C=CC=O reads 49 to 50 °C

// melting point lookup, compound = CCOC(=O)c1sc2[nH]c(=O)c(=O)[nH]c2c1CC , result: > 300 °C

The compound listed as O=S(=O)(c1cc(Cl)ccc1Cl)n1c2cc(O)c(O)cc2c2ccc(O)c(O)c21 has a reported melting point of > 300 °C

Lab book: melting point of N#CNc1nnc(-c2ccccc2Nc2cccc(C(F)(F)F)c2)o1 noted as > 230 °C

Short answer for Cc1ccc(S(=O)(=O)N2Cc3c(C)sc(C)c3C2)cc1 : melting point was 163 to 164 °C

---

PROPERTY_LABEL: melting point

melting point reading for Cn1c(C(F)(F)F)cc(=O)n(-c2cc(OCCC3OCCO3)c(Cl)cc2F)c1=O : 125 to 127 °C

In plain terms, CCOC(=O)c1c(Cn2cncn2)nc2cc(OC)c(OC)cc2c1-c1ccc(OC)c(OC)c1 has a documented melting point of 176 to 177 °C

The molecule listed as Cc1nc(N2CCN(Cc3ccc4nonc4c3)C2=O)sc1C(=O)NCc1cccnc1 has a reported melting point of 110 to 112 °C

So, OC(CN1CCC(c2noc3cc(F)ccc23)CC1)CN1CCCc2ccccc21 (stereo not given) ? Its melting point was 170 to 171 °C

Record O=c1nc(-c2cccc(CC(O)=S)n2)sc2ccccc12 , field melting point: 258 to 260 °C

---

Consider the following molecules; for each one, report its melting point.

Just so you know, measured melting point for COC(=O)Oc1ccc(N=Cc2ccc(C#N)cc2)cc1 came out at 145 to 146 °C

In plain terms, COc1c(CN2C(=O)c3ccccc3C2=O)n(C)c(=O)c2ccc(Cl)cc12 has a documented melting point of 248 to 249 °C

# molecule COc1ccc2c3c(c(=O)oc2c1)CN(CCN1CC2CCCC(C2)C1)CC3 ; its melting point = 102 to 103 °C

# melting point (molecule: CNC(=O)c1cc(-c2ccc(OC)cc2)nn(C)c1=O ) is 150 to 151 °C

The recorded melting point for O=C(c1ccc(O)c(F)c1)N(c1ccc(O)cc1)c1ccc(F)cc1 is 110 to 112 °C

melting point reading for O=S(=O)(Cc1ccc(O)cc1)Cc1ccc(O)cc1 : 92 °C

Lab note: CCN1c2ccccc2C=C(Br)c2ccccc21 gave melting point of 148 °C

The recorded melting point for entry Cc1ccncc1Cn1nnnc1-c1cccc(Cl)c1Cl equals 154 to 156 °C

Documented melting point of CCOC(=O)[C@H](Cc1ccc([N+](=O)[O-])cc1I)NC(=O)OCc1ccccc1 : 85 to 87 °C

The molecule listed as N#Cc1ccccc1OCCCC(=O)O shows melting point equal to 127 to 128 °C

Please fill in: melting point reported for NC(=O)C1(N2C(=O)c3cccc(Br)c3C2=O)CCCCC1 = 199 to 200 °C

Summary for this molecule, CCOC(C)n1c(Cl)nc(-c2ccc(OC)cc2)c1-c1ccc(OC)cc1 (configuration not stated) : melting point is 118 to 120 °C
